Ref: paper PMC10618370

target: E. coli MurE (Escherichia coli)
Sequence (P22188 whole entry): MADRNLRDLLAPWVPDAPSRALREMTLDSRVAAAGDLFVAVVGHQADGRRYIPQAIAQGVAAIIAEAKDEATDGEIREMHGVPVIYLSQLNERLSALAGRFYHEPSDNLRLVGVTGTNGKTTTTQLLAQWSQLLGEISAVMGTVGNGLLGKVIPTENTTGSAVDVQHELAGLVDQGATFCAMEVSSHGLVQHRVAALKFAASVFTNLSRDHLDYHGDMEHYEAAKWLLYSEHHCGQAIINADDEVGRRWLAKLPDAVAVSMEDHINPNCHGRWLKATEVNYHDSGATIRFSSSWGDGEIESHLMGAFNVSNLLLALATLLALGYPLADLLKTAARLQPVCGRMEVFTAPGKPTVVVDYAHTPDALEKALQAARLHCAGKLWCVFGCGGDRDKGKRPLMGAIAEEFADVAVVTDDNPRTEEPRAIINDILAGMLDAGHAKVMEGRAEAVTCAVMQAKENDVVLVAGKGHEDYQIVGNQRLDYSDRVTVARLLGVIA
assay-readout: pIC50
Formally, pIC50 is defined as -log10 of the concentration c, with c in mol/L.

Supply recorded pIC50 for `Oc1cc(O)c2c(c1)O[C@H](c1ccc(O)c(O)c1)[C@@H](O)[C@H]2O` here.
3.79

----------
Examples of compounds with documented remaining activity at 100 µM follow.
target: E. coli MurE (Escherichia coli)
measurement-protocol: MurE inhibition assay (Malachite green)
Format: biochemical
stated-conditions: 0.25 h; residual activity at 100 µM compound; mean ± SD of three independent experiments; read-out: RA (%) @ 100 µM MurE
Express the result in % but write the number alone.

Reference set (5 entries):
compound	remaining activity at 100 µM (%)
COc1cc(O)c2c(=O)c(O)c(-c3ccc(O)c(O)c3)oc2c1 [Compound 13]	82
COc1cc(OC)c2c(=O)cc(-c3ccc(OC)c(OC)c3)oc2c1 [Compound 19]	100
O=c1c(O)c(-c2cc(O)c(O)c(O)c2)oc2cc(O)cc(O)c12 [Compound 12, myricetin]	66
CC1OC(Oc2c(-c3cc(O)c(O)c(O)c3)oc3cc(O)cc(O)c3c2=O)C(O)C(O)C1O (stereo not drawn) [Compound 11]	100
O=C1C[C@@H](c2ccc(O)cc2)Oc2cc(O)cc(O)c21 [Compound 5]	98

Supply recorded remaining activity at 100 µM for O=c1cc(-c2ccccc2)oc2cc(O)cc(O)c12 [Compound 17] here.
83

Supply recorded remaining activity at 100 µM for Oc1cc(O)c2c(c1)O[C@H](c1ccc(O)c(O)c1)[C@@H](O)C2 [Compound 22, (+)-catechin] here.
88

Supply recorded remaining activity at 100 µM for O=c1c(O[C@@H]2O[C@H](CO)[C@@H](O)[C@H](O)[C@H]2O)c(-c2ccc(O)c(O)c2)oc2cc(O)cc(O)c12 [Compound 8] here.
97

Supply recorded remaining activity at 100 µM for O=c1c(OC2OC(CO)C(O)C(O)C2O)c(-c2ccc(O)c(O)c2)oc2cc(O)cc(O)c12 (stereo not drawn) [Compound 9] here.
100

Supply recorded remaining activity at 100 µM for COc1ccc([C@@H]2CC(=O)c3c(O)cc(O)cc3O2)cc1O [Compound 1] here.
100

Supply recorded remaining activity at 100 µM for C[C@@H]1O[C@@H](Oc2c(-c3ccc(O)c(O)c3)oc3cc(O)cc(O)c3c2=O)[C@H](O)[C@H](O)[C@H]1O [Compound 10, quercitrin] here.
98

Supply recorded remaining activity at 100 µM for Oc1cc(O)c2c(c1)O[C@H](c1ccc(O)c(O)c1)[C@H](O)C2 [Compound 21, (–)-epicatechin] here.
79
